Measured inhibition values are reported for all entries that follow.
molecular target: Receptor-interacting serine/threonine-protein kinase 2 (Homo sapiens) (UniProt O43353); assay: inhibitors of RIPK2 association with NOD2 – fluorescence, CHO cells, BLA complementation, primary screen (AID 624267); settings: CHO BLA complementation NOD2-RIPK2, CCF4 ratio; at 4.98 µM; stronger effect = higher value;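 also: 0% = vehicle only and 100% = reference blocker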
Sequence (O43353 whole entry, looked up): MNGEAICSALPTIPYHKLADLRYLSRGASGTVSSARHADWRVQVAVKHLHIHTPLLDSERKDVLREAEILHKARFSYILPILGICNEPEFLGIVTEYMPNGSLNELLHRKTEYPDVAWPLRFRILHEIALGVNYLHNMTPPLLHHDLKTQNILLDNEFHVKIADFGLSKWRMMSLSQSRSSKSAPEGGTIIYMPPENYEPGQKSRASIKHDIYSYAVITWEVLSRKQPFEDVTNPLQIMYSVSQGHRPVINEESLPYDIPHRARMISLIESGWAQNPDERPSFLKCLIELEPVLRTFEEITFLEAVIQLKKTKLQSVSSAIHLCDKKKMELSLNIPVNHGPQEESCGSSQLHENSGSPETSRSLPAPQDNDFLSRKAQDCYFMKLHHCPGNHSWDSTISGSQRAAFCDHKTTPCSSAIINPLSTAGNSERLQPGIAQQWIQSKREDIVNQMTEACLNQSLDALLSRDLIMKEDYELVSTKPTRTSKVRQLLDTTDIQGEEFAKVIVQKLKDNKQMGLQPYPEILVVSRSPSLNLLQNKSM
Screen size: about 360,000 compounds; about 1,400 (0.39%) were called active. The sample as a whole holds a higher share of actives than the screen did.
Quick reminder: number only, in %, skip the unit.

Example entries begin here.
CN(C)/C=C(/C(=O)c1ccccc1)S(=O)(=O)c1ccc(Cl)cc1 | 10.5
CN1CCN(/N=C2/C(=O)Nc3ccc([N+](=O)[O-])cc32)CC1 | 1.73
CCCc1c(C(=O)Nc2ccc(F)cc2)cnn1-c1ccccc1 | -3.44
CN(CCC(=O)Nc1cc(S(=O)(=O)N(C)C)ccc1Cl)CC(=O)Nc1ccc(F)cc1 | -1.55
O=C(CN1C(=O)NC2(CCCCC2)C1=O)N1CCN(C(=O)c2cccs2)CC1 | -8.73

Dear colleague, I am looking for the recorded inhibition of the following compound: `CCSc1ccccc1C(=O)Nc1ccc2c(c1)OCO2` 1.86

Check `CN1CCN(/N=C/c2ccc(C#N)cc2)CC1` too. -13.1
